Target: human GPR17 short isoform (Homo sapiens, UniProt Q13304)
Sequence (Q13304 29-367): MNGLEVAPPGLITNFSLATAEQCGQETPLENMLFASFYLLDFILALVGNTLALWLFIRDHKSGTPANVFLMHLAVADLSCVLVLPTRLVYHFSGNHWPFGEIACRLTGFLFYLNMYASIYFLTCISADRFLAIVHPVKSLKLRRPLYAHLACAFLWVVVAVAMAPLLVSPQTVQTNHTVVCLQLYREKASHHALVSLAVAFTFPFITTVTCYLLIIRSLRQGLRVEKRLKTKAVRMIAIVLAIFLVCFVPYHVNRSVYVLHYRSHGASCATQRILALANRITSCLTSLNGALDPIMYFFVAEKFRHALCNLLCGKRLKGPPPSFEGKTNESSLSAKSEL
Assay: GPR17 cAMP assay (TR-FRET cAMP quantification, antagonist mode)
Conditions: CHO-K1 cells stably expressing human GPR17 short isoform; EC80 of agonist MDL29,951; forskolin 15µM; IBMX 0.5mM; 30 minutes at room temperature; read-out: hGPR17 cAMP IC50
Source text: GPR17 cAMP Assay Protocol: […] Changes in intracellular cyclic adenosine monophosphate (cAMP) levels were quantified using the Nano-TRF Detection Assay kit (Roche Diagnostics, Cat. No. 05214386001). This assay allows for direct cAMP quantification in a homogeneous solution. cAMP is detected based on time-resolved fluorescence energy transfer (TR-FRET) and competitive binding of ruthenylated cAMP and endogenous cAMP to an anti-cAMP monoclonal antibody labeled with AlexaFluor-700. […]
readout-type: IC50 (nM)
All answers are understood in nM, so give the number only.

Inquiry: What does the data say about its IC50? Entry: COc1nc(NS(=O)(=O)c2c[nH]c3c(-c4nnco4)c(Cl)ccc23)nc(OC)c1OCC(F)F [Example 110]
Reply text: 46

Inquiry: What does the data say about its IC50? Entry: COc1nc(NS(=O)(=O)c2c[nH]c3c(-c4cnc(C)cn4)c(Cl)ccc23)nc(OC)c1OCC(F)F [Example 84]
Reply text: 52

Inquiry: What does the data say about its IC50? Entry: COc1nc(NS(=O)(=O)c2c[nH]c3c(-c4cnccn4)cccc23)nc(OC)c1CC(F)F [Example 25]
Reply text: 56

Inquiry: What does the data say about its IC50? Entry: COc1nc(NS(=O)(=O)c2c[nH]c3c(-c4ncccn4)c(F)ccc23)nc(OC)c1OCC(F)F [Example 26]
Reply text: 218
